Listed here are compounds together with their documented Ratio.
- Test description: Ratio of plasma concentration in monkey at 3 mg/kg, po after 8 hrs to EC90 for Hepatitis C virus
- Type: ADME, organism-based
- Design: dose 3 mg/kg, route oral
- Condition info: in vivo

CCCC[C@H](NC(=O)[C@@H]1C2C(CN1C(=O)[C@@H](NC(=O)NC1([C@H]3CCCS3(=O)=O)CCCCC1)C(C)(C)C)C2(C)C)C(=O)C(=O)NC1CC1 (single isomer, unassigned) = 0.5

query: // fetch Ratio given entry `CC1([C@H](NC(=O)NC2([C@H]3CCCS3(=O)=O)CCCCC2)C(=O)N2C[C@@H]3[C@H]([C@H]2C(=O)N[C@@H](CCC2CC2)C(=O)C(=O)NC2CC2)C3(C)C)CCCCC1`
result: 8

query: // fetch Ratio given entry CCCC[C@H](NC(=O)[C@@H]1C2C(CN1C(=O)[C@@H](NC(=O)NC1([C@H]3CCCS3(=O)=O)CCCCC1)C1(C)CCCCC1)C2(C)C)C(=O)C(=O)NC1CC1 (single isomer, unassigned)
result: 37

query: // fetch Ratio given entry CCC[C@H](NC(=O)[C@@H]1C2C(CN1C(=O)[C@@H](NC(=O)NC1([C@H]3CCCS3(=O)=O)CCCCC1)C1(C)CCCCC1)C2(C)C)C(=O)C(=O)NC1CC1 (single isomer, unassigned)
result: 47

====

- Test description: Inhibition of HCV NS3/4A protease
- Parameters: species or system Hepacivirus hominis
Listed here are compounds together with their documented Ki.
Unit nM implied. Number only.

Examples from the recorded data:
CC(C)(C)NC(=O)N[C@H](C(=O)N1C[C@H]2[C@@H]([C@H]1C(=O)NC(CC1CCC1)C(=O)C(N)=O)C2(C)C)C(C)(C)C (stereo not given in full) = 14
CC1([C@H](NC(=O)NC2([C@H]3CCCS3(=O)=O)CCCCC2)C(=O)N2C[C@@H]3[C@H]([C@H]2C(=O)N[C@@H](CCC2CC2)C(=O)C(=O)NC2CC2)C3(C)C)CCCCC1 = 3
CC(C)(C)[C@H](NC(=O)NC1([C@H]2CCCS2(=O)=O)CCCCC1)C(=O)N1C[C@@H]2[C@H]([C@H]1C(=O)N[C@@H](CCC1CC1)C(=O)C(=O)NC1CC1)C2(C)C = 4
CCC[C@H](NC(=O)[C@@H]1[C@H]2[C@@H](CN1C(=O)[C@@H](NC(=O)NC1([C@H]3CCCCS3(=O)=O)CCCCC1)C1(C)CCCCC1)C2(C)C)C(=O)C(=O)NC1CC1 = 7
CCCC[C@H](NC(=O)[C@@H]1C2C(CN1C(=O)[C@@H](NC(=O)NC1([C@H]3CCCS3(=O)=O)CCCCC1)C(C)(C)C)C2(C)C)C(=O)C(=O)NC1CC1 (single isomer, unassigned) = 4

query: // fetch Ki given entry `C=CCNC(=O)C(=O)[C@H](CCCC)NC(=O)[C@@H]1[C@H]2[C@@H](CN1C(=O)[C@@H](NC(=O)NC1([C@H]3CCCCS3(=O)=O)CCCCC1)C(C)(C)C)C2(C)C`
result: 12

query: // fetch Ki given entry C=CCNC(=O)C(=O)[C@H](CCCC)NC(=O)[C@@H]1C2C(CN1C(=O)[C@@H](NC(=O)NC1([C@H]3CCCS3(=O)=O)CCCCC1)C(C)(C)C)C2(C)C (single isomer, unassigned)
result: 3

query: // fetch Ki given entry C=CCNC(=O)C(=O)C(CCC)NC(=O)[C@@H]1[C@H]2[C@@H](CN1C(=O)[C@@H](NC(=O)NC1([C@H]3CCCS3(=O)=O)CCCCC1)C(C)(C)C)C2(C)C (mixture of isomers)
result: 6

query: // fetch Ki given entry C=CCNC(=O)C(=O)[C@H](CCC)NC(=O)[C@@H]1C2C(CN1C(=O)[C@@H](NC(=O)NC1([C@H]3CCCCS3(=O)=O)CCCCC1)C(C)(C)C)C2(C)C (single isomer, unassigned)
result: 3

query: // fetch Ki given entry `CCCC[C@H](NC(=O)[C@@H]1[C@H]2[C@@H](CN1C(=O)[C@@H](NC(=O)NC1([C@H]3CCCCS3(=O)=O)CCCCC1)C1(C)CCCCC1)C2(C)C)C(=O)C(=O)NC1CC1`
result: 8

Where these numbers come from: ChEMBL document CHEMBL1156149
